For each of the compounds below, state its speed of sound.
Test Conditions: 286.65 K; 101.33 kPa; Liquid; Pulse-echo method
Return type: number; implicit unit m/s.

Task: Given C[NH2+]CCO.O=C[O-] [2-hydroxy-N-methylethanaminium formate] , state its recorded speed of sound.
Output: 1837.9

Task: Record: CCCCC(=O)[O-].C[NH2+]CCO [2-hydroxy-N-methylethanaminium pentanoate]
Output: 1586.2

Task: Record: CCC(=O)[O-].C[NH2+]CCO [2-hydroxy-N-methylethanaminium propionate]
Output: 1724.7

Task: Record: CC(C)C(=O)[O-].C[NH2+]CCO [2-hydroxy-N-methylethanaminium isobutyrate]
Output: 1644.4

Task: Record: CCCC(=O)[O-].C[NH2+]CCO [N-methyl-2-hydroxyethylammonium butanoate]
Output: 1652.4
